Entries and their pEC50 values follow.
Molecular target: hGIPR (Homo sapiens, UniProt P48546)
Sequence (P48546 22-466): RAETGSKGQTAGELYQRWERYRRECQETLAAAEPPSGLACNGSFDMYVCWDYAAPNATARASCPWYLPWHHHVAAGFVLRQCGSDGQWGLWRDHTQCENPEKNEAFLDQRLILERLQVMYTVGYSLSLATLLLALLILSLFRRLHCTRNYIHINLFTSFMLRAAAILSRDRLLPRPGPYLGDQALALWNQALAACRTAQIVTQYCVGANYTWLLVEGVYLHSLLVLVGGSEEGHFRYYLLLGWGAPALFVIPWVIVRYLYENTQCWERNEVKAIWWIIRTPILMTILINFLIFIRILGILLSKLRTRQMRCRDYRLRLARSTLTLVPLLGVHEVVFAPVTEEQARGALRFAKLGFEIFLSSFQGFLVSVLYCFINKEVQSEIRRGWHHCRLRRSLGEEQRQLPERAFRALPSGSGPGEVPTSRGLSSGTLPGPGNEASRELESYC
Assay: Functional cAMP activation in the presence of 0.1% casein (no HSA);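 further: intracellular cAMP rise after 30 min at 37 °C read by HTRF against a standard curve, scaled between buffer alone (0%) and top control ligand concentration (100%), four-parameter fit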
Format: cell-based
Details: in the presence of 0.1% casein (no HSA); geometric mean; read-out: Relative cAMP EC50, hGIPR
pEC50: −log10 of the molar value. Starred links: 1 amine or outer side, 2 acyl side, 3 side chain; linkers in the order of their positions; H or OH if unused. Non-standard residues stand in square brackets, D forms with d. Groups on a side chain read outwards from the residue. No end group written: not given here. *: point of attachment. C18 diacid = O=C(O)CCCCCCCCCCCCCCCCC(=O)*; γGlu = O=C(O)[C@H](CCC(=O)[*:2])N[*:1]; αMe4Pal = C[C@](N)(Cc1ccncc1)C(=O)O; 4Pal = N[C@@H](Cc1ccncc1)C(=O)O; αMeL = CC(C)C[C@](C)(N)C(=O)O; Orn = NCCC[C@H](N)C(=O)O; AEEA = NCCOCCOCC(=O)O; Aib = CC(C)(N)C(=O)O
experimental.readout: pEC50

1) H-Y[Aib]QGTFTSDFS[Orn][αMeL]LDKK([AEEA-γGlu-C18 diacid])AQ[Aib]AFIEYLLAGGPSSGEPPPSGE-NH2 [Example 97] = 9.75
2) Y[Aib]QGTFTSD[4Pal]SK[αMeL]LDKK([AEEA-γGlu-C18 diacid])AQ[Aib]AFIEYLIA[Aib]GESSGEPPPSGE-NH2 [Example 286] = 10.07
3) H-Y[Aib]QGTFTSDFS[Orn][αMeL]LDKK([AEEA-AEEA-γGlu-C18 diacid])AQ[Aib]AFIEYLLE[Aib]GPSSGAPPPSGE-NH2 [Example 111] = 10.05
4) H-Y[Aib]QGTFTSD[4Pal]S[Orn][αMeL]LD[Orn]K([γGlu-γGlu-C18 diacid])AQ[αMe4Pal]QFIEYLIAGGPSSGAPPPSGSEE-NH2 [Example 1000] = 9.75
5) H-Y[Aib]QGTFTSDYSK[αMeL]LDKK([AEEA-γGlu-C18 diacid])AQ[Aib]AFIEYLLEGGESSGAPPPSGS-NH2 [Example 358] = 9.74
